Biological target: Adenosine receptor A2b (Homo sapiens) (UniProt P29275)
Sequence (P29275 whole entry): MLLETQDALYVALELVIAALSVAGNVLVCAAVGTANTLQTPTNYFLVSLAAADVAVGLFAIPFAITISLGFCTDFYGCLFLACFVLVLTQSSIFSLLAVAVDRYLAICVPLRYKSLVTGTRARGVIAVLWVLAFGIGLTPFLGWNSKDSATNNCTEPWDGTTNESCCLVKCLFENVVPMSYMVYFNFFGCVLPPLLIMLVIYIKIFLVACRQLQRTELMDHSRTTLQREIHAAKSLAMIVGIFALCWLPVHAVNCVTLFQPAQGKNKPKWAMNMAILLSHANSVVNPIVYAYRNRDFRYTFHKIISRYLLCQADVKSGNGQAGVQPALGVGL
Assay: Antagonist activity against human adenosine A2B receptor expressed in CHO cells assessed as inhibition of NECA-induced cAMP production at 1 uM by scintillation counting method
Type: functional, cell-based
Property: inhibition (%)

A: Cc1nc2sc(Cc3ccccc3)nc2c(=O)[nH]1
B: Cc1nc2sc(-n3cccc3)nc2c(=O)[nH]1
Asked: Between these two entries, A and B , state which has the higher inhibition. Respond using the label that marks the chosen record.
Given back: B

I: Cc1nc2sc(Nc3ccccc3)nc2c(=O)[nH]1
II: COc1ccc(-c2nc3c(=O)[nH]c(C)nc3s2)cc1
III: Cc1nc2sc(-c3ccc(F)cc3)nc2c(=O)[nH]1
IV: Cc1nc2sc(-c3ccco3)nc2c(=O)[nH]1
Asked: List the 4 entries from lowest inhibition to highest inhibition value. Give the labels in the order specified.
Given back: I, IV, II, III
(I: 1%, IV: 2%, II: 3%, III: 17%)

I: COc1cccc(Nc2nc3c(=O)[nH]c(C)nc3s2)c1
II: Cc1ccc(-c2nc3c(=O)[nH]c(C)nc3s2)cc1
III: Cc1nc2sc(-c3cccc(C(F)(F)F)c3)nc2c(=O)[nH]1
Asked: Put the entries in order of inhibition, starting with the largest number. Show the ranking through the labels, in the order asked for.
Given back: III, II, I
(III: 17%, II: 3%, I: 1%)
